Tested on: human dermal fibroblast (HDF) cell lines
Test: Neutral red uptake assay (cytotoxicity)
Format: cell-based
Details: HDFs; column stands under the head 'Hemolysis assay'; read-out: Toxicity (EC50 in µM) HDFs
Ends that are not written are not given here.
endpoint-name: EC50
Hey, just the number and the unit after it is fine.

# input Recorded EC50 for KKKKLKKILKKLFQFIDQLDNDLQDIKKKK (not fully specified (C-terminus)) [KDFC16+9-NH2, group C peptide, net charge +9 e; 89] , please?
# output 10 µM

---

Test: Calcein leakage assay
Type: biochemical
Conditions: calcein leakage; peptide-to-lipid ratio 1:20 (mol/mol); POPC:POPG (1:1 mol/mol) LUVs
Ends that are not written are not given here.
endpoint-name: Extent of leakage (in percentage) at increasing peptide-to-lipid ratio (mol/mol) 1:20
Give bare numbers, in percentage.

{"columns": ["substance", "obs-value"],
 "data": [
  ["KQKKLKKFFNQLIQLINQLFNQLDDFNQNK [KDFB12]", 101.5],
  ["H-KKKKVKKILKKLIQLIDQLDKDLQDIKKKK-NH2 [KD16+9-NH2]", 93.1],
  ["NQRRLRRILNQLFQFINQLDNQLQDIRRQN [RDFA2]", 102.9],
  ["NQKKLRRILRRLFQFIDQLDNDLQDIKKQN [RDFC16Kter]", 102.2]
]}

# batch size: 3; output Extent of leakage (in percentage) at increasing peptide-to-lipid ratio (mol/mol) 1:20 per entry
1. KKKKLKKILKKLFQFIDQLINDLQNIKKKK-NH2 [KDFA5+11-NH2]
2. NQKKLQNILNKLFKFIDDLINQLQNIKKQN [KDFA9]
3. RRRRLKKILKKLFQFINQLDNQLQDIRQNR-NH2 [KDFA2i+9-NH2-Rter]

# output
[101.6, 102.0, 103.3]

---

Tested on: Gram-positive Staphylococcus carnosus CCM 4838T
Type: cell-based
Details: CCM 4838
Ends that are not written are not given here.
API: label(entry) gives yes (1) if the entry's Antibacterial activity (MIC in µM) S. carnosus is strictly smaller than 0.8 µM; on equality or larger values it gives no (0).

# input Dear reviewer, please state whether KKKKLKKILKKLFQFINQLDNQLQDIKKKK-NH2 [KDFA2i+11-NH2] has Antibacterial activity (MIC in µM) S. carnosus strictly beneath 0.8 µM.
# output yes (1)

---

Assay: Calcein leakage assay
Assay type: biochemical
Details: calcein leakage; peptide-to-lipid ratio 1:100 (mol/mol); POPC:POPG (1:1 mol/mol) LUVs
Description: Chemicals. […] (Prague, Czech Republic), and Caslo ApS (Kongens Lyngby, Denmark). […] The bacterial stock was stored at -80°C. Calcein leakage assay. […] The inventors monitored the peptide-induced release of calcein from LUVs by the increase in fluorescence intensity after adding increasing amounts of peptides to the LUVs under constant stirring at 25 °C. […] Maximum fluorescence intensity was obtained by disrupting all the vesicles in the end by adding 10% Triton X-100. […]
Ends that are not written are not given here.
Hi there, I'd appreciate the recorded Extent of leakage (in percentage) at increasing peptide-to-lipid ratio (mol/mol) 1:100 for every entry that follows.

{"columns": ["substance", "obs-value"],
 "data": [
  ["NQRRLRRILNQLFQFINQLDNQLQDIRRQN [RDFA2]", "80.2 ± 8.2 percentage"],
  ["KKKKLKKILKKLFQFIDQLINDLQNIKKKK-NH2 [KDFA5+11-NH2]", "38.6 ± 3.5 percentage"],
  ["KQKKLKKFFNQLIQLINQLFNQLDDFNQNK [KDFB12]", "79.4 ± 3.7 percentage"],
  ["KKKKLRRILRRLFQFINQLDNQLQDIKQNK-NH2 [RDFA2i+9-NH2-Kter]", "76.0 ± 3.3 percentage"],
  ["NQKKLRRILRRLFQFIDQLDNDLQDIKKQN [RDFC16Kter]", "64.5 ± 6.1 percentage"],
  ["H-HHHHLKKILKKLFQFINQLDNQLQDIHHHH-OH [KDFA2i+2-Hter]", "102.5 ± 1.2 percentage"]
]}

# batch size: 6; output Extent of leakage (in percentage) at increasing peptide-to-lipid ratio (mol/mol) 1:100 per entry
1. RRRRLRRILRRLFQFINQLDNQLQDIRQNR-NH2 [RDFA2i+9-NH2]
2. NQKKLQNILNKLFKFIDDLINQLQNIKKQN [KDFA9]
3. NQKKLKKILNQLFQFINQLDNQLQDIKKQN [KDFA2]
4. KKKKLKKFFKKLIQLINQLFDDLDDFKKKK-NH2 [KDFD24+9-NH2]
5. KKKKLKKILKKLFQFIDQLDNDLQDIKKKK (not fully specified (C-terminus)) [KDFC16+9-NH2, group C peptide, net charge +9 e; 89]
6. H-KKKKVKKILKKLIQLIDQLDKDLQDIKKKK-NH2 [KD16+9-NH2]

# output
1. 65.8 ± 4.1 percentage
2. 62.6 ± 5.2 percentage
3. 82.8 ± 1.5 percentage
4. 13.0 ± 5.2 percentage
5. 78.2 ± 4.5 percentage
6. 58.8 ± 4.8 percentage

# batch size: 2; output Extent of leakage (in percentage) at increasing peptide-to-lipid ratio (mol/mol) 1:100 per entry
1. KKKKLDDILDDLFQFIKQLKNKLQKIKKKK-NH2 [DKFC16+9-NH2]
2. RRRRLKKILKKLFQFINQLDNQLQDIRQNR-NH2 [KDFA2i+9-NH2-Rter]

# output
["50.1 ± 4.1 percentage", "65.5 ± 4.2 percentage"]

---

Experiment: Calcein leakage assay
Format: biochemical
Conditions: calcein leakage; peptide-to-lipid ratio 1:20 (mol/mol); POPC:POPG (1:1 mol/mol) LUVs
Ends that are not written are not given here.
Hi there, I'd appreciate the recorded Extent of leakage (in percentage) at increasing peptide-to-lipid ratio (mol/mol) 1:20 for every entry that follows.

Illustrative cases are given below, each with its answer.
{"columns": ["substance", "obs-value"],
 "data": [
  ["KKKKLDDILDDLFQFIKQLKNKLQKIKKKK-NH2 [DKFC16+9-NH2]", "103.3 ± 0.9 percentage"],
  ["KKKKLKKFFKKLIQLINQLFDDLDDFKKKK-NH2 [KDFD24+9-NH2]", "81.5 ± 6.8 percentage"],
  ["KKKKLKKILKKLFQFIDQLDNDLQDIKKKK (not fully specified (C-terminus)) [KDFC16+9-NH2, group C peptide, net charge +9 e; 89]", "98.3 ± 5.2 percentage"]
]}

Turning now to a further record.
# input Recorded Extent of leakage (in percentage) at increasing peptide-to-lipid ratio (mol/mol) 1:20 for KKKKLKKILKKLFQFINQLIDDLDDIKKKK-NH2 [KDFC21+9-NH2] , please?
# output 99.4 ± 1.6 percentage

---

Tested on: Gram-positive Staphylococcus carnosus CCM 4838T
Assay type: cell-based
Settings: CCM 4838
Ends that are not written are not given here.
API: label(entry) gives yes (1) if the entry's Antibacterial activity (MIC in µM) S. carnosus is strictly smaller than 0.8 µM; on equality or larger values it gives no (0).

# input Dear reviewer, please state whether NQKKLQNILNKLFKFIDDLINQLQNIKKQN [KDFA9] has Antibacterial activity (MIC in µM) S. carnosus strictly beneath 0.8 µM.
# output no (0)

# input Dear reviewer, please state whether KKKKLKKILKKLFQFINQLIDDLDDIKKKK-NH2 [KDFC21+9-NH2] has Antibacterial activity (MIC in µM) S. carnosus strictly beneath 0.8 µM.
# output no (0)

# input Dear reviewer, please state whether KKKKLDDILDDLFQFIKQLKNKLQKIKKKK-NH2 [DKFC16+9-NH2] has Antibacterial activity (MIC in µM) S. carnosus strictly beneath 0.8 µM.
# output no (0)

# input Dear reviewer, please state whether KKKKLKKILKKLFQFINQLDNQLQDIKQNK [KDFA2i+8] has Antibacterial activity (MIC in µM) S. carnosus strictly beneath 0.8 µM.
# output yes (1)

# input Dear reviewer, please state whether KQKKLKKFFNQLIQLINQLFNQLDDFNQNK [KDFB12] has Antibacterial activity (MIC in µM) S. carnosus strictly beneath 0.8 µM.
# output no (0)

# input Dear reviewer, please state whether KKKKKLKKILKKLFQFINQLDNQLQDIKKKKK [KDFA2i+12] has Antibacterial activity (MIC in µM) S. carnosus strictly beneath 0.8 µM.
# output yes (1)

# input Dear reviewer, please state whether H-HHHHLKKILKKLFQFINQLDNQLQDIHHHH-OH [KDFA2i+2-Hter] has Antibacterial activity (MIC in µM) S. carnosus strictly beneath 0.8 µM.
# output no (0)

# input Dear reviewer, please state whether KKKKLRRILRRLFQFINQLDNQLQDIKQNK-NH2 [RDFA2i+9-NH2-Kter] has Antibacterial activity (MIC in µM) S. carnosus strictly beneath 0.8 µM.
# output yes (1)

# input Dear reviewer, please state whether KKKKLKKILKKLFQFIDQLINDLQNIKKKK-NH2 [KDFA5+11-NH2] has Antibacterial activity (MIC in µM) S. carnosus strictly beneath 0.8 µM.
# output no (0)
